Cited source for all entries: PubChem BioAssay

# test-description: probe aNog binding to arrayed compounds – biochemical, biotinylated probe, 635/667 nm fluorescence, primary screen (AID 1115);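 also: probe is biotinylated aNog protein used at 0.15 µg/mL for 1 h at 4 C; z-score combines 667 nm fluorescence of each spot with its signal to noise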
# run-conditions: small-molecule microarray, higher = more signal
Respond with yes for composite z-score values of 0.1 and above, no for values below.

Consider the following illustrative entries.
# molecule, answer-label
records = [
    ("COc1cc(NN2C(C(O)c3ccccc3)C=CC3C(=O)N(c4ccccc4)C(=O)C32)cc(OC)c1OC (stereo not given)", "yes"),
    ("C=C(COC)C(=O)CC[C@H](OC(=O)c1cccnc1)c1ccccc1OCCO", "yes"),
    ("NC(=O)[C@]1(Cc2ccccc2)N=C(c2ccc(OCCCO)cc2)O[C@@H]1c1ccccc1", "yes"),
    ("O=C1O[C@H](c2ccccc2)[C@H](c2ccccc2)N2[C@H]1[C@@H](C(=O)NC[C@H](O)c1ccccc1)[C@]1(C(=O)Nc3ccc(C#CC4(O)CCCCCC4)cc31)[C@H]2c1ccccc1OCCO", "yes"),
    ("COCCOC(=O)N1C(=O)[C@@]2(c3cc(C#Cc4ccc(OC)cc4)ccc31)[C@H](c1ccc(O)cc1)N1[C@H](c3ccccc3)[C@H](c3ccccc3)OC(=O)[C@H]1[C@@H]2C(=O)N1CCN(c2ncccn2)CC1", "no"),
    ("CC1CC/C=C\\[C@H]2OC34C=CCN(Cn5nnc6ccccc65)C(=O)[C@H]3N(CCCO)C(=O)[C@@H]4C2C(=O)O1 (stereo not given in full)", "no"),
    ("COCCOC(=O)N1C(=O)[C@@]2(c3ccccc31)[C@H](c1ccc(O)cc1)N1[C@H](c3ccccc3)[C@H](c3ccccc3)OC(=O)[C@H]1[C@@H]2C(N)=O", "no"),
    ("CN(C)CCCCNC(=O)[C@@H]1C[C@@H]2C(=O)N[C@@H](CCCCN)C(=O)N2[C@@H]1c1cccc(OCCO)c1", "yes"),
]

Please find the next molecule below.
composite z-score >= 0.1 for C=C(CCCC)/C(=C/C[C@H](OC(C)=O)c1ccc(CO)o1)c1cc(C(=O)OC)ccc1OC ? yes
